target: UniProt Q16620; assay: KINOMEscan competition binding; conditions: compound 10.0 µM
Sequence (Q16620 whole entry, looked up): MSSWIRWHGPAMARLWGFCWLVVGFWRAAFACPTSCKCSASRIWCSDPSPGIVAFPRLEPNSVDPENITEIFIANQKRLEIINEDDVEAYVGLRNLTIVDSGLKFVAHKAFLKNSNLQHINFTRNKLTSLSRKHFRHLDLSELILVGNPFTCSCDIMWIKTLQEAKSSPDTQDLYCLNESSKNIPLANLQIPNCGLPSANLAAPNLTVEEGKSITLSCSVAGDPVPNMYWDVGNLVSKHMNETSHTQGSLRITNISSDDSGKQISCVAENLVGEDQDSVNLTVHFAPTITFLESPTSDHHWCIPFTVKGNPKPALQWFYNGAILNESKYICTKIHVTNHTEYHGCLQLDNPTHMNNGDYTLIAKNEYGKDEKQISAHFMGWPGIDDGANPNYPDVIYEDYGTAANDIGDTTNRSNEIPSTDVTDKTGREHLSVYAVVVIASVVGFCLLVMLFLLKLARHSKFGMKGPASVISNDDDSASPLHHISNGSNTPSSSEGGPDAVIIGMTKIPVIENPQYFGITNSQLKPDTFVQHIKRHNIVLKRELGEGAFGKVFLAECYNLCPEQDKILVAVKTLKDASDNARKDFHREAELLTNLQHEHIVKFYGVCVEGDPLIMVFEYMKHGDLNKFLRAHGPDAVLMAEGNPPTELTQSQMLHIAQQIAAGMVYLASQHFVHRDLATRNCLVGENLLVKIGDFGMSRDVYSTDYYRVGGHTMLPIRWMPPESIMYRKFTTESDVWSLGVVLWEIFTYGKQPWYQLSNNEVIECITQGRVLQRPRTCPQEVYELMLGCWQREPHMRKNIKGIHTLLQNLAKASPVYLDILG
Listed below: kinase still bound, per cent of control values for each entry.
observed-property: kinase still bound, per cent of control (%)

given_smiles=COc1cc(N2CCN(C)CC2)ccc1Nc1ncc2c(n1)N(C)c1sccc1C(=O)N2C observed_property="kinase still bound, per cent of control" unit_tag=% observed_measurement=83
given_smiles=CN1C(=O)c2ccccc2N(C)c2nc(Nc3ccc(N4CCC(O)CC4)cc3)ncc21 observed_property="kinase still bound, per cent of control" unit_tag=% observed_measurement=36
given_smiles=CN1CCN(c2ccc(C(=O)Nc3ncc4c(n3)N(C)c3ccccc3C(=O)N4C)cc2)CC1 observed_property="kinase still bound, per cent of control" unit_tag=% observed_measurement=69
given_smiles=CN1C(=O)c2ccccc2N(C)c2nc(NS(=O)(=O)c3ccc(N)cc3)ncc21 observed_property="kinase still bound, per cent of control" unit_tag=% observed_measurement=53
given_smiles=COc1cc(N2CCC(O)CC2)ccc1Nc1ncc2c(n1)N1CCc3cccc(c31)C(=O)N2C observed_property="kinase still bound, per cent of control" unit_tag=% observed_measurement=100
given_smiles=O=C1NC(=O)/C(=C/c2c[nH]c(=O)c(-c3ccc(N4CCNCC4)nc3)c2)S1 observed_property="kinase still bound, per cent of control" unit_tag=% observed_measurement=86
given_smiles=COc1cc(N2CCN(C)CC2)ccc1Nc1ncc2c(n1)N(C)c1ccccc1N(C)C2=O observed_property="kinase still bound, per cent of control" unit_tag=% observed_measurement=100
given_smiles=COc1cc(N2CCN(C)CC2)ccc1Nc1ncc2c(n1)Nc1ccccc1NC2=O observed_property="kinase still bound, per cent of control" unit_tag=% observed_measurement=2.4

* * *

target: CSNK2A2 (human) (UniProt P19784); experiment: KINOMEscan competition binding; conditions: compound 10.0 µM
Sequence (P19784 whole entry, looked up): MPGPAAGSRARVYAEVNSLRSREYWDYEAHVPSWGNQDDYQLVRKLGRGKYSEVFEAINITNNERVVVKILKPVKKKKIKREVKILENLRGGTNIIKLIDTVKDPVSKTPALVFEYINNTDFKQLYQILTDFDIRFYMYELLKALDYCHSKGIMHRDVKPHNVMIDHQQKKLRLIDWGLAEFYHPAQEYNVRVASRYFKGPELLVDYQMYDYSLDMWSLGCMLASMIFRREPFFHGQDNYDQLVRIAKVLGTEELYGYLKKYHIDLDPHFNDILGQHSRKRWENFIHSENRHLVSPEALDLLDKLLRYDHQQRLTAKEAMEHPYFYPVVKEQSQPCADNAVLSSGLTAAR
Threshold 30%: kinase still bound, per cent of control strictly smaller gives 1, otherwise -1.

given_smiles=N=C1NC(=O)/C(=C/c2ccc(-c3cnc4ccccc4c3)o2)S1 system_under_test="CSNK2A2 (human) (UniProt P19784)" label_class=1
given_smiles=Cc1cn(-c2cc(NC(=O)c3cccc4cc(-c5ccc(/C=C6\SC(=N)NC6=O)o5)ccc34)cc(C(F)(F)F)c2)cn1 system_under_test="CSNK2A2 (human) (UniProt P19784)" label_class=-1
given_smiles=N=C1NC(=O)/C(=C/c2ccc(-c3cccc4cc[nH]c34)o2)S1 system_under_test="CSNK2A2 (human) (UniProt P19784)" label_class=1
given_smiles=N=C1NC(=O)/C(=C/c2ccc(-c3ccc(C(N)=O)cc3O)o2)S1 system_under_test="CSNK2A2 (human) (UniProt P19784)" label_class=1
given_smiles=N=C1NC(=O)/C(=C/c2c[nH]c(=O)c(-c3ccc(N4CCNCC4)nc3)c2)S1 system_under_test="CSNK2A2 (human) (UniProt P19784)" label_class=-1
given_smiles=COc1cc(N2CCC(O)CC2)ccc1Nc1ncc2c(n1)N1CCc3cccc(c31)C(=O)N2C system_under_test="CSNK2A2 (human) (UniProt P19784)" label_class=-1
given_smiles=N=C1NC(=O)/C(=C/c2ccc(-c3ccc(F)cc3O)o2)S1 system_under_test="CSNK2A2 (human) (UniProt P19784)" label_class=1
given_smiles=O=C1NC(=O)/C(=C/c2ccc(-c3ccc4c(C(=O)Nc5cccc(C(F)(F)F)c5)cccc4c3)o2)S1 system_under_test="CSNK2A2 (human) (UniProt P19784)" label_class=-1
given_smiles=O=C1NC(=S)S/C1=C\c1ccc(-c2cccc3ccccc23)o1 system_under_test="CSNK2A2 (human) (UniProt P19784)" label_class=1
